# assayed target: HLA-DR DRB5*0101 (human)
# assay method text: competition with 125I-labelled peptide, purified HLA
measurement kind: IC50 (µM)
Give the value in µM but do not write µM after it.

Query string: For the binder SLMLQIGNMISIWVSHS (modifications not checked) [Flu.NA.21] , give its reported IC50.
Result string: 0.024

Query string: Give reported IC50 value for TKKMVTQRTIGKKKQ (modifications not checked) [Flu.PB1.199]
Result string: 0.0041
